- System Name: KRAS G12C (Homo sapiens (Human), UniProt P01116, C118A/G12C)
- Sequence (P01116 other isoform, or with tags, fused parts or gaps G12C/C118A): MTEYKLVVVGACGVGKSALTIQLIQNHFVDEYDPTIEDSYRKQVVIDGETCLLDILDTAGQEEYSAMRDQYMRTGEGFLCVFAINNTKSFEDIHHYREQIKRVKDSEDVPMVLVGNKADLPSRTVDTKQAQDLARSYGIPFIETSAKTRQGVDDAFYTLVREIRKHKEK
- Protocol: 2 h coupled exchange assay
- Format: biochemical
- Setup Conditions: Avg 2 h Coupled exchange IC50, 2 h compound pre-incubation, SOS-mediated nucleotide exchange
Readout Type: IC50 (nM)

{"Compound": "C=CC(=O)N1CC2(CCN(c3nc4c(c(-c5c(C)ccc6[nH]ncc56)c3C#N)C[C@H]3C[C@@H]4C3(C)C)C2)C1 (single isomer, unassigned) [Example 13-115]", "Recorded Measurement": 12}
{"Compound": "C=CC(=O)N1CC2(CCN(c3nc4c(c(-c5cccc6cc(C(F)(F)F)[nH]c56)c3C#N)C[C@H]3C[C@@H]4C3(C)C)C2)C1", "Recorded Measurement": 476}

a. C=CC(=O)N1CC2(CCN(c3nc4c(c(-c5cccc6ccn(C)c56)c3C#N)COC(C)(C)C4)C2)C1
b. C=CC(=O)N1CC2(CCN(c3nc4ccccc4c(-c4cc(O)cc5ccccc45)c3C#N)C2)C1
c. C=CC(=O)N1CC2(CCN(c3nc4c(c(-c5cc(O)ccc5Cl)c3C#N)C[C@H]3C[C@@H]4C3(C)C)C2)C1 (single isomer, unassigned) [Example 2-75]
d. C=CC(=O)N1CC2(CCN(c3nc4c(c(-c5c(C)ccc6cnn(C)c56)c3C)CCC(C)(C)C4)C2)C1 [Example 2-19]
Challenge: Sort the compounds on IC50; start with the lowest figure. Use the labels to give the ranking in the order requested.
Response given: d, b, c, a

1. C=CC(=O)N1CC2(CCN(c3nc4c(c(-c5c(C)ccc6nonc56)c3C#N)C[C@H]3C[C@@H]4C3(C)C)C2)C1
2. CN(C)C/C=C/C(=O)N1CC2(CCN(c3nc4c(c(-c5cc(O)cc6ccccc56)c3C#N)CC[C@H]3C[C@@H]43)C2)C1 (single isomer, unassigned) [Example 13-88]
Challenge: Could you tell me which of 1 and 2 has the lower IC50 reading? In your reply, give the label of the chosen option.
Response given: 2

###

- System Name: KRAS G12C (Homo sapiens (Human), UniProt P01116, C118A/G12C)
- Protocol: 2 h coupled exchange assay
- Type: biochemical
- Setup Conditions: Avg 2 h Coupled exchange IC50, 2 h compound pre-incubation, SOS-mediated nucleotide exchange
Readout Type: IC50 (nM)

Examples with their reported IC50 follow.
{"Molecule": "C=CC(=O)N1CC2(CCN(c3nc(-c4cc(O)cc5ccccc45)c4ncc(C)cc4n3)C2)C1 [Example 1-22]", "Readout Type": "IC50", "Measurement Units": "nM", "Recorded Measurement": 1140}
{"Molecule": "C=CC(=O)N1CC2(CCN(c3nc4c(c(-c5c(C)ccc6[nH]ncc56)c3C#N)CN(C)CC4)C2)C1 [Example 13-22]", "Readout Type": "IC50", "Measurement Units": "nM", "Recorded Measurement": 259}
{"Molecule": "C=CC(=O)N1CC2(CCN(c3nc4c(c(-c5cccc(C)c5Cl)n3)CCCC4)C2)C1 [Example 1-27]", "Readout Type": "IC50", "Measurement Units": "nM", "Recorded Measurement": 5170}

a. C=CC(=O)N1CC2(CCN(c3cc4c(c(-c5c(C)c(Cl)cc6cnn(C)c56)c3Cl)OCCC4)C2)C1 [Example 2-110]
b. C=CC(=O)N1CC2(CCN(c3nc4c(c(-c5c(C)ccc6[nH]ncc56)c3Cl)COC(C)(C)C4)C2)C1 (single isomer, unassigned) [Example 2-85]
Challenge: Which of the two items, a and b , has the greater recorded IC50? Give the label of your selection.
Response given: b
(b: 12600 nM, a: 53 nM)
